Tested on: rabbit eye cornea
Test: Surface anesthesia on the rabbit cornea, Regnier method (Regnier index)
Assay type: in vivo
Conditions: 1% solution, 0.2 mL instilled, solution irradiated with UV 365 nm (Z-form predominance), mean ± SD
For each record, write down the corresponding Local Anesthetic Activity (Regnier Index, Min—13, Max—1300) Under Irradiation (λ = 365 nm).

Ask: Recorded Local Anesthetic Activity (Regnier Index, Min—13, Max—1300) Under Irradiation (λ = 365 nm) of Cl.Fc1cc(OCCN2CCOCC2)cc(F)c1N=Nc1ccccc1 [Compound 20b] , please.
Reply: 58 ± 8 (n = 4)

Ask: Name the recorded Local Anesthetic Activity (Regnier Index, Min—13, Max—1300) Under Irradiation (λ = 365 nm) for Cl.Fc1ccccc1N=Nc1ccc(OCCN2CCOCC2)cc1 [Compound 20c] .
Reply: 70 ± 7 (n = 4)

Ask: Would you kindly share the measured Local Anesthetic Activity (Regnier Index, Min—13, Max—1300) Under Irradiation (λ = 365 nm) for Cl.Fc1ccccc1N=Nc1ccc(OCCN2CCOCC2)cc1F [Compound 20d] ?
Reply: 84 ± 8 (n = 4)

Where do these numbers come from? They come from paper PMC11989239.
